Give measured growth for each item. Keep answers brief.
- Tested on: A498 renal
- protocol: NCI-60 one-dose screen, 48 h (100 = growth as untreated, 0 = no growth, -100 = all killed)
- condition label: 10 µM unless noted
About 83,000 compounds went through this panel and 20% of them were active in at least one assay; those are over-represented in the sample as a whole. Calls of active or inactive are those of the source. The calls were made as follows: active = growth percent below 10; inactive = the rest.

The reported growth of the compound C=C(C)[C@@H]1CC[C@]2(C(N)=O)CC[C@]3(C)[C@H](CC[C@@H]4[C@@]5(C)C/C(=C/c6cccnc6)C(=O)C(C)(C)[C@@H]5CC[C@]43C)[C@@H]12 was 17.3% [100 µM] (inactive)

Entry CC1Cc2ccc(OCCN(C)C)cc2C1=O (centres undefined) , growth reported as 91.2% (inactive)

The value of growth measured for the compound COC(=O)c1c(C)[nH]c(/C=C2\N=C(c3ccc[nH]3)C=C2OC)c1C turned out to be 0.235% (active)

Record C[n+]1cccc(NC(=O)c2ccc3ccc4ccc(C(=O)Nc5ccc[n+](C)c5)nc4c3n2)c1 , field growth: 95.3% (inactive)

----------
Consider the following compounds; for each one, report its growth.
- System: SK-OV-3 ovarian
- protocol: NCI-60 one-dose screen, 48 h (100 = growth as untreated, 0 = no growth, -100 = all killed)
- condition label: 10 µM unless noted
The panel holds about 83,000 compounds, 20% with a hit somewhere; the sample as a whole holds those more often.
Please reply with the bare figure in % and do not write the unit itself.

Entry under test: O=C(CCCSc1nc(-c2ccccc2)cc(-c2ccccc2)n1)NO . Its growth was -18.6

Entry under test: COc1ccc2nc3c(cc2c1)C(=O)CC(C(F)(F)F)C3 (stereo unspecified) . Its growth was 56.8

The reported growth of the compound CCOC(=O)COc1ccc2c(c1)O/C(=C\c1ccc(O)cc1)C2=O was 117

Recorded result, O=C(N/N=C/c1c(Cl)cccc1Cl)c1cccc(Nc2ccnc(C(F)(F)F)c2)c1 , growth: 102

The reported value for CCCCCCNC(=O)Nc1ncnc2c1ncn2-c1ccccc1 in terms of growth is 87.5

Record summary for O=C(N/N=C1\c2ccccc2-c2cccc(C(=O)O)c21)c1ccc(O)cc1 : reported growth = 101

----------
- Tested on: OVCAR-4 ovarian
- protocol: NCI-60 one-dose screen, 48 h
- condition label: 10 µM
About 83,000 compounds went through this panel and 20% of them were active in at least one assay; those are over-represented in the sample as a whole. Active and inactive are the calls of the source. Rule for the calls: active = growth percent below 10; inactive = the rest.
Can you answer with just one of these options? active, inactive

Incoming: Please share the test call associated with COc1ccc2nc3c(cc2c1)C(=O)CC(c1ccccc1)C3 (stereo not given) .
Outgoing: inactive

Incoming: Name the outcome recorded for CCCn1ccnc1C(O)c1ccc(OCc2ccccc2)c(OC)c1 (stereo not given) in the assay.
Outgoing: inactive

Incoming: Record lookup: outcome of this test for CCN(CCO)CCC(=O)c1ccc([N+](=O)[O-])cc1 ?
Outgoing: inactive

Incoming: Could you kindly confirm the outcome this assay logged for Cn1cc(-c2noc(-c3cn(C)c4ncc(Br)cc34)n2)c2cc(Cl)ccc21 ?
Outgoing: active

Incoming: Any idea what this test logged for Cn1cc(-c2nnc(-c3ccccc3)s2)c2cc(Br)cnc21 ?
Outgoing: inactive

Incoming: # outcome recorded in this test, key = Cc1cc2c(C(C)C)c(O)c(O)c(C=NCc3ccoc3)c2c(O)c1-c1c(C)cc2c(C(C)C)c(O)c(O)c(C=NCc3ccco3)c2c1O
Outgoing: inactive

Incoming: Status in this test for O=C1Cc2c(sc3c(F)cccc23)C(c2ccccc2[N+](=O)[O-])N1 (stereo not given) ?
Outgoing: inactive

Incoming: Per the records of this test, what outcome belongs to CCOc1ccc2sc(NS(=O)(=O)c3ccc(N)cc3)nc2c1 ?
Outgoing: inactive

Incoming: For CN(Cc1cccc(C(F)(F)F)c1)C(=O)[C@@H](CC(=O)N1CCC(N2CCCCC2)CC1)N1C(=O)[C@@H](N2C(=O)OC[C@@H]2c2ccccc2)[C@H]1/C=C/c1ccccc1 , which call appears in the assay record?
Outgoing: inactive

Incoming: Tell me the assay call for Cc1c(Cn2cc(COc3ccc(Br)cc3)nn2)c(C)c(Cn2cc(COc3ccc(Br)cc3)nn2)c(C)c1Cn1cc(COc2ccc(Br)cc2)nn1 please.
Outgoing: inactive

Incoming: I'd appreciate the recorded outcome for Cc1cccc([N+](=O)[O-])c1I from this test.
Outgoing: inactive

Incoming: Status in this test for C[n+]1c2ccccc2nc2c(N)cc(N)cc21 ?
Outgoing: inactive

Incoming: Which outcome was assigned to CC(C)C1=NOC(=O)C1=Cc1cn(-c2cccnc2)nc1-c1ccccc1 in this test?
Outgoing: inactive

Incoming: How did this test come out for COc1ncc(-c2ccc3nccc(C#CCCCCC(=O)O)c3c2)cc1NS(=O)(=O)c1ccc(F)cc1F ?
Outgoing: inactive

Incoming: Fill in: this test's call for CCOC(=O)COc1ccc2c(c1)O/C(=C\c1ccc(O)cc1)C2=O is ___
Outgoing: inactive

Incoming: In this assay, the call recorded for CC(C)[N+](C)(C)CC(O)COc1cccc2ccccc12 (stereo not given) was what?
Outgoing: inactive

Incoming: Could you check what this test reported for Cc1ncc(C(=O)Nc2ccc(CN3CCN(C)CC3)c(C(F)(F)F)c2)cc1C#Cc1c(N)ncc2ccc(C#N)cc12 ?
Outgoing: inactive

Incoming: # fetch the recorded call for Cc1cc[n+](CCCCCCCCCC[n+]2ccc(C)cc2)cc1 here
Outgoing: inactive

Incoming: In this assay, the call recorded for Cc1ccccc1OC(=O)c1cccc(Cl)c1 was what?
Outgoing: inactive

Incoming: Check the results log: what was the call for CCn1cc(-c2ccnc(NCCNS(=O)(=O)c3ccc(Br)cc3)c2)c(-c2cccc(OC)c2)n1 ?
Outgoing: inactive

----------
I'd be grateful if you could share measured growth for these entries.
- System: BT-549 breast
- protocol: NCI-60 one-dose screen, 48 h (100 = growth as untreated, 0 = no growth, -100 = all killed)
- condition label: 10 µM unless noted
About 83,000 compounds went through this panel and 20% of them were active in at least one assay; those are over-represented in the sample as a whole. Activity calls are given as the source filed them. The calls were made as follows: active = growth percent below 10; inactive = the rest.

For CC1(C)CC[C@]23CC[C@]4(C)[C@H](CC[C@@H]5[C@@]6(C)C/C(=C/c7cccnc7)C(=O)C(C)(C)[C@@H]6CC[C@]54C)[C@H]2[C@H]1OC3=O the compound record lists growth as 31.7% [100 µM] (inactive)

For record C=C(C)C1CCC2(C(=O)O)CCC3(C)C(CCC4C5(C)CCC(OC(=O)NCc6ccccc6)C(C)(C)C5CCC43C)C12 (centres undefined) the listed growth is 64.8% (inactive)

Value of measured growth for the entry C=C(C)[C@@H]1CC[C@]2(COCCC#N)CC[C@]3(C)[C@H](CC[C@@H]4[C@@](C)(CCCNCCC#N)[C@H](C(=C)C)CC[C@]43C)[C@@H]12 : 41% [100 µM] (inactive)

Cc1ccc(C2=C/C(=C/c3ccc(Br)cc3)C(=O)N2CCc2ccc(S(N)(=O)=O)cc2)cc1 yielded growth of 98.1% (inactive)

Kindly note the recorded growth for O=[N+]([O-])c1cc([N+](=O)[O-])c(NN=C(c2ccc(O)cc2)c2ccc(O)cc2)cc1Cl , which is -11.6% (active)

The compound listed as Cc1nn(-c2ccccc2)c(N2CCOCC2)c1-c1nc2ccc([N+](=O)[O-])cc2[nH]1 has a reported growth of 96.8% (inactive)

Given item Cc1c(Cn2cc(COc3ccc(Br)cc3)nn2)c(C)c(Cn2cc(COc3ccc(Br)cc3)nn2)c(C)c1Cn1cc(COc2ccc(Br)cc2)nn1 , the value recorded as its growth is 97.1% (inactive)

Consider CCN=C1C=CC(=C(c2ccc(N(CC)CC)cc2)c2ccc(N(CC)CC)cc2)c2ccccc21 . Its measured growth is -67.2% (active)

Quick note, growth for O=C1Nc2ccccc2/C1=C/C(=O)c1ccc(N2CCOCC2)cc1 landed at 97% (inactive)

Lab note: C=C(C)[C@@H]1CC[C@]2(C(=O)OC)CC[C@]3(C)[C@H](CC[C@@H]4[C@@]5(C)CC/C(=N\OCCC(=NCCC#N)NOCCC#N)C(C)(C)[C@@H]5CC[C@]43C)[C@@H]12 gave growth of 4.4% [100 µM] (active)

The recorded growth for CCN(CC)CCCCCCNc1cccc2cc(Br)cnc12 is 80.8% (inactive)

growth measured on C=CCCCCOc1ccccc1-c1cnc(OCCCCC=C)n1C = 96.8% (inactive)

Reported growth for COc1ccc(N(c2nc(-c3ccc([N+](=O)[O-])cc3)cs2)C(C)C)cc1 was 97% (inactive)

In plain terms, COC(=O)[C@]1(C)CC[C@]2(C)CC[C@]3(C)C(=CC(=O)[C@@H]4[C@@]5(C)CCC(=O)NC(C)(C)[C@@H]5CC[C@]43C)[C@@H]2C1 has a documented growth of -78.6% [100 µM] (active)

// growth value for Fc1cc2[nH]ncc2c2c3c(c(-c4cn[nH]c4)nc12)CCCC3 : -17.3% (active)

The compound identified as C=C(C)[C@@H]1CC[C@]2(c3ncc(C)o3)CC[C@]3(C)[C@H](CC[C@@H]4[C@@](C)(CCC#N)[C@H](C(=C)C)CC[C@]43C)[C@@H]12 registered its growth at -76% [100 µM] (active)

Looking up N#C/C(=C(/O)CCCO)c1nc2ccccc2c(=O)[nH]1 , I found its growth recorded as 109% (inactive)

Entry O=C(C[n+]1ccn(CC(OCc2ccc(Cl)cc2Cl)c2ccc(Cl)cc2Cl)c1)c1ccc(F)cc1 (centres undefined) — recorded growth = -94.9% (active)

Data point: CN(C)c1cc(NN=C(c2ccc(O)cc2)c2ccc(O)cc2)c([N+](=O)[O-])cc1[N+](=O)[O-] ; growth = 115% (inactive)

The recorded growth for COc1c(B(O)O)cccc1-c1nc2ccc3[nH]ncc3c2c2c1CCC2 is 60% (inactive)

Reported growth of O=C1/C(=C/c2cccc(OCc3ccccc3)c2)Oc2cc(OCCN3CCCCC3)ccc21 : 75.6% (inactive)

Memo: CC1(C)CC[C@]2(C(=O)O)CC[C@]3(C)C(=CC[C@@H]4[C@@]5(C)C/C(=C/c6ccco6)C(=O)C(C)(C)[C@@H]5CC[C@]43C)[C@@H]2C1 , reported growth: -27.2% [100 µM] (active)

For record CCN(CC)c1ccc2cc(C(Nc3ccc(C)cc3)c3nnnn3C(C)(C)C)c(=O)oc2c1 (centres undefined) the listed growth is 89.1% (inactive)

The compound O=C(CSc1nc2ccc([N+](=O)[O-])cc2[nH]1)Nc1ccc(F)c(Cl)c1 showed growth equal to -0.0932% (active)

growth reported for this compound Cc1ccc(S(=O)(=O)Oc2ccc([N+](=O)[O-])cc2[N+](=O)[O-])cc1 : -8.38% (active)

Consider O=C(Nc1cccc(C2=NCCN2)c1)c1cccc(C(=O)Nc2cccc(C3=NCCN3)c2)c1 . Its measured growth is 110% (inactive)

For O=C(Nc1cccc2cccnc12)c1cc(C(=O)c2ccc(Cl)cc2)n2ccc(-c3ccncc3)cc12 the compound record lists growth as 93.9% (inactive)

Form: compound = CCCSc1nc(N)nc2nc[nH]c12 ; growth = 156% (inactive)

Value of growth reported for the compound CCCN1CC(c2ccc(OC)c(OC)c2)=C(c2cn(C(=O)OCC)c3ccccc23)C1=O is 58.6% (inactive)

Query N/C(=N\c1nc2ccccc2[nH]1)NC(=O)Cc1cccc2ccccc12 yields growth of 85.3% (inactive)

response.value for CC(C)CCSc1nc(N)nc2nc[nH]c12 (field: growth) = 140% (inactive)

Notebook: O=C1NC(=O)c2cc([N+](=O)[O-])cc3cccc1c23 , growth read as 96% (inactive)

Lab book: growth of Cc1cc(-c2ccc(N=Nc3c(S(=O)(=O)O)cc4cc(S(=O)(=O)O)cc(N)c4c3O)c(C)c2)ccc1N=Nc1cc(S(=O)(=O)O)c2ccccc2c1O noted as 107% (inactive)

For CC1(C)C(=O)/C(=C\c2ccco2)C[C@]2(C)[C@H]3CC=C4[C@@H]5C[C@](C)(C(=O)O)CC[C@]5(C)CC[C@@]4(C)[C@]3(C)CC[C@@H]12 the compound record lists growth as -62.6% [100 µM] (active)
